Cited source: ChEMBL document CHEMBL4296183

Test system: Staphylococcus aureus
Assay summary: Antibacterial activity against Staphylococcus aureus MRSA ATCC 43300 (CO-ADD:GP_020); MIC in CAMBH media using NBS plates, by Resazurin F(560/590)
Assay type: functional
Experimental conditions: Concentration 20 uM, ASSAY_TEST Inhibition of Bacterial Growth, detection method Resazurin, Fluorescence (ex560/em590), MEDIA CAMHB, plate type 384well, CORNING #3640, time 18 hr
Outcome measure: Inhibition (%)
Give the number; % is assumed, so skip it.

{"columns": ["Compound", "Experimental result"],
 "data": [
  ["COc1cc2c3c(c4ccc(OC)c(OC)c4c2cc1OC)CN1CCC[C@@H]1C3", 23.41]
]}

What measured Inhibition goes with CC(C)=CC(=O)OC1C2C(C)C(=O)OC2C(O)C(C)C2C=CC(=O)C21C (configuration not stated) ?
8.65

What measured Inhibition goes with "CC(=O)Oc1ccc2ccc(=O)oc2c1OC(C)=O" ?
18.68

What measured Inhibition goes with COc1ccc(C2CC(=O)c3c(O)cc(OC4OC(CO)C(O)C(O)C4OC4OC(C)C(O)C(O)C4O)cc3O2)cc1O (configuration not stated) ?
15.96

What measured Inhibition goes with COC(=O)NC1C(C)OC(OC2C/C=C(/C)C3C=CC4C(OC5CC(OC6CCC(OC7CC(O)C(OC8CCC(O)C(C)O8)C(C)O7)C(C)O6)C(OC(C)=O)C(C)O5)C(C)CC(C)C4C3(C)/C(O)=C3/C(=O)OC4(CC(C=O)=CC(O)C4/C=C\2C)C3=O)CC1(C)[N+](=O)[O-] (configuration not stated) ?
-21.61

What measured Inhibition goes with "C/C=C/c1cc2c(c(=O)o1)C(=O)[C@@H](O)[C@H](C)O2" ?
-0.66

What measured Inhibition goes with "COC(=O)[C@]1(C)CCC[C@]2(C)C3=CC(=O)[C@@]4(C(C)C)O[C@H]4[C@]3(O)CC[C@@H]12" ?
16.23
